Biological target: UniProt P26358
Sequence (P26358 whole entry, looked up): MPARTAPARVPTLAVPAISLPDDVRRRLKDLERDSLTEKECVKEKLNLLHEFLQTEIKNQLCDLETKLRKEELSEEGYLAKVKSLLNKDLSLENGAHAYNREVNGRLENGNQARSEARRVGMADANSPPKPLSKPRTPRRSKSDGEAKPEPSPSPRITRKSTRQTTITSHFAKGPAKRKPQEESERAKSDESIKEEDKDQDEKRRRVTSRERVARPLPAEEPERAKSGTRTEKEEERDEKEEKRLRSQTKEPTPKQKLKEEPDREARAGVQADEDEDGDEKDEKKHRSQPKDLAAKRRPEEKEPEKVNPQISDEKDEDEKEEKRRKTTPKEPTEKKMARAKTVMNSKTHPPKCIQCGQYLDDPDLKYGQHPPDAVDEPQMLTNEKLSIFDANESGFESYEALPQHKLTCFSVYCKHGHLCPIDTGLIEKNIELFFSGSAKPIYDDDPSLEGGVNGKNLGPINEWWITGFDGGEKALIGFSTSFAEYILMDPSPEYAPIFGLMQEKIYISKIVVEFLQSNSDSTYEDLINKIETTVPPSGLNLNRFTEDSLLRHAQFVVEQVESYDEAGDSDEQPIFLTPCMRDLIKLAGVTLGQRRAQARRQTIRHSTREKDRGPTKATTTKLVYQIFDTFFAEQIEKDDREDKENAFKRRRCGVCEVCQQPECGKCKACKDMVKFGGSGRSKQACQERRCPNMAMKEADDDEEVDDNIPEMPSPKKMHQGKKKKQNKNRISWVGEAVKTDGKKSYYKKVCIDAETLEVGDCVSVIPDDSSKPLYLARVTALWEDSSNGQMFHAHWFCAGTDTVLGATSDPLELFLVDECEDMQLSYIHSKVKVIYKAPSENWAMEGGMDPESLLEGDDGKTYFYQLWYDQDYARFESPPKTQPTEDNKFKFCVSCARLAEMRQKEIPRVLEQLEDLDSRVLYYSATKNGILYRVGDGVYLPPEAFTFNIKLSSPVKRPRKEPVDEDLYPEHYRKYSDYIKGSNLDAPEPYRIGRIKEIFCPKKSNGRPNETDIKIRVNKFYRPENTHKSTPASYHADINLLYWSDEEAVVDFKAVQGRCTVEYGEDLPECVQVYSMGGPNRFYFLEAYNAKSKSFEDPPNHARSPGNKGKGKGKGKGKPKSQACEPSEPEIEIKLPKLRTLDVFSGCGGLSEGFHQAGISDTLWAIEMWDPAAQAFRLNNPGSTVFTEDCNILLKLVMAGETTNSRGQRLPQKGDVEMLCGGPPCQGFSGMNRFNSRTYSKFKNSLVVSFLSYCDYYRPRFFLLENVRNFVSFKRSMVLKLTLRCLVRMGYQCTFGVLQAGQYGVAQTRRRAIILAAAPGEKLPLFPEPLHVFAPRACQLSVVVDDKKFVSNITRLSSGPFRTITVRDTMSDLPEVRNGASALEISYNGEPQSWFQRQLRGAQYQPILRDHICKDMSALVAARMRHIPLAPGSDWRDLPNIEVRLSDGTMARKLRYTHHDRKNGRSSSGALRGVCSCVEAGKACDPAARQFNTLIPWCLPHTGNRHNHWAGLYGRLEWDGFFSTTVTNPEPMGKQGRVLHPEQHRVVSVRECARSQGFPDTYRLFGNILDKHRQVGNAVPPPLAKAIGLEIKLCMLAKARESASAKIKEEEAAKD
Assay: DNMT1 biochemical activity, breaklight assay and/or SPA assay
Details: binned activity in either the breaklight or the SPA assay; read-out: DNMT1 BioChemical (pIC50 category) (converted)
compounds and their reported IC50

Examples with their reported IC50 follow.
CCc1c(C#N)c(NC)nc(SC(C(N)=O)c2ccccc2)c1C#N (stereo not shown) | 316 to 1000 nM
CCc1c(C)c(N2CCNCC2)nc(SC(C(N)=O)c2ccccc2)c1C#N (stereo not shown) | 316 to 1000 nM
CCc1c(C#N)c(SC(C(N)=O)c2ccccc2)nc(N2CCN(C(=O)c3ccccc3)CC2)c1C#N (stereo not shown) | 316 to 1000 nM

## Task Request body: readout IC50, system UniProt P26358, query CCc1c(C#N)c(SCc2ccc(-c3ccncc3)cc2)nc(N2CCC(N3CCCC3)CC2)c1C#N . Return the value.
## Result 316 to 1000 nM
